Reported apparent KD of MS2 coat protein values follow for various sequences
tested on: MS2 coat protein; assay: apparent KD of MS2 coat protein; designed switch direction (-1 OFF switch, 1 ON switch): -1; higher = weaker reporter binding; details: input ligand: none
Answer format: numeric, nM implied, no suffix.

item_sequence="GGUGAGCUAGGAUAUGCUUUGGGCUCGCUUUCCUUCGAUAAACUUGAGGAUCACCCAAGUAGAAGGAGCUUGCC [salish99_ex2_r4_033] (Eterna round: R97, puzzle: Exclusion 2)" target_system="MS2 coat protein" units_label=nM quantitative_result=12
item_sequence="GAUUAACAUGAGGAUCACCCAUGUGAGGAUAUUGACUUGCUCACUUUCCCAUUAGAGUCGAGAAGGCGCAUCUG [1986#19] (Eterna round: R97, puzzle: Exclusion 1)" target_system="MS2 coat protein" units_label=nM quantitative_result=60.5
item_sequence="GGCCUGUAAGGAUAUUAGUAGUAGUCAGAAUAGACUAUUACUGAGAAGGUACAUGAGGAUCACCCAUGUUGGCC [Eli x4 4.06] (Eterna round: R97, puzzle: Exclusion 4)" target_system="MS2 coat protein" units_label=nM quantitative_result=14
item_sequence="AAUUCCGUAGGAUAUGGGAACCGGGACAUGAGGAUCACCCAUGUGAAGGAUGUCCCAACACCAGAAGGACGCAGCA [EX5 A.14] (Eterna round: R97, puzzle: Exclusion 5)" target_system="MS2 coat protein" units_label=nM quantitative_result=25.9

Tell me reported apparent KD of MS2 coat protein for ACAAGCUUAGGUAAUCAUAACAUGAGGAUCACCCAUGUUCGUCUUAUAAAAAUAAAAAUAAAAAACAAAAAAUAAAA [Sensor V2: 65] (Eterna round: R96, puzzle: Sensor v2, turn-off variant) , tested with MS2 coat protein.
33.8

====

test system: MS2 coat protein; assay: apparent KD of MS2 coat protein; higher = weaker reporter binding; details: Eterna round: R107; input ligand: arginine 13.2 mM
MEASUREMENT_NAME: apparent KD of MS2 coat protein (nM)
Answer format: numeric, nM implied, no suffix.

item_sequence="CUAUUUAUAGCGGCCGCCACUUACUCAUGAGGUAACAACAUGAGGAUCACCCAUGUUUGAGGAUCAAGGACCGGGCUAUGGAUAG [AstrosSSTryB#12]" measurement_name="apparent KD of MS2 coat protein" quantitative_result=24.5
item_sequence="CUCCGAGGCUAUACUAUACGCCUUUGUGAUACCAGAAUAAAUAUAUUCCCUUGGCAGCAUCACAUGAGGAUCACCCAUGUGCCAU [SSTheo A #12]" measurement_name="apparent KD of MS2 coat protein" quantitative_result=15.7
item_sequence=GGACUAACCAGAAGGAGCGACGCGCAGAAACUGCAAAUUCCUCCACACGAGGAUCACCCGUGUCAGGUAGGUCGCUGGUUAGUCG measurement_name="apparent KD of MS2 coat protein" quantitative_result=16.5
item_sequence="AUGCAUAGCCGAAGGAGCGCAGUAGGAUGACAUGAGGAUCACCCAUGUGUGUGAUGUGGAUUGCAGGUAGGUCGCGGAGUGGUAU [Exclusion - Arginine B (Freestyle 5)]" measurement_name="apparent KD of MS2 coat protein" quantitative_result=47
item_sequence="AAGACGGUCGGAAGGAGCGGUACAUGAGGAUCACCCAUGUACCUCUGGGCAUCCGUAGUGUGCCAGGUAGGUCGCCGAUUGCGGG [Esorbevege]" measurement_name="apparent KD of MS2 coat protein" quantitative_result=12.7

What apparent KD of MS2 coat protein value was documented for this sequence, CGUAAACAUGAGGAUCACCCAUGUGAUGAUACCAGCACGAUUAACUGCCCUUGGCAGCAUGUAUUGUACGACUUAUUGCCCAUCG [theeternabot_sameState_MS2_Theo_A_15] ?
15.4

What apparent KD of MS2 coat protein value was documented for this sequence, AAAAGAGGUGGAAGGAGCGGGAGACAUGAGGAUCACCCAUGUGAAGUGACGAAAGGAUCAGCCCAGGUAGGUCGCCAUGUCGAAA [yuiiumullin] ?
31

What apparent KD of MS2 coat protein value was documented for this sequence, UAUGUCGCCGAAGAUACCAGCCUGGCAAGCAACAUGAGGAUCACCCAUGUAAUUACUUAUGGCCCUUGGCAGCUUCAAAUAGAGC [theeternabot_sameState_MS2_Theo_B_42] ?
10.8

====

Reported apparent KD of MS2 coat protein values follow for various sequences
system: MS2 coat protein; assay: apparent KD of MS2 coat protein; designed switch direction (-1 OFF switch, 1 ON switch): -1; higher = weaker reporter binding; conditions: Eterna round: R95; input ligand: none
Answer format: numeric, µM implied, no suffix.

item_sequence="GAUGCUUCGGCAUCUACAAGCUUUUUGCUCGUCUUAUUAACAUGAGGAUCACCCAUGUCAAAGAGACCUCAUGUAUU [Sensor v3 - turn-off variant 2 - 4] (puzzle: Sensor v3, turn-off variant 2)" target_system="MS2 coat protein" units_label=µM quantitative_result=0.381
item_sequence="GAUGUGGGUUUCCGGAGUAACAUGAGGAUCACCCAUGUAGAAGUUGGAGGGAUCAAGCUUUUUGGUCGUCACACGUG [JR_SV3TOV1_Sub053] (puzzle: Sensor v3, turn-off variant 1)" target_system="MS2 coat protein" units_label=µM quantitative_result=0.306
item_sequence="GGAGCGAUUCUCUUAGUUAACAUGAGGAUCACCCAUGUGUACAAGCUCUUAUUUUGCUCGUCUUACCGAGAGUUGCC [Tienve] (puzzle: Sensor v3, turn-off variant 1)" target_system="MS2 coat protein" units_label=µM quantitative_result=0.0247
item_sequence="CAAAAGGUAGGAUAUACGAAAAAAAAGGGUAGAAAAAAAACACAUGAGGAUCACCCAUGUAGAAGGACCAAAAU [salish99_ex2_r3_054] (puzzle: Exclusion 2)" target_system="MS2 coat protein" units_label=µM quantitative_result=0.0225
item_sequence="AUAACGUGGGCGUCCCACGGCAAGCUUUUUGCUCGUUUGACAUGAGGAUCACCCAUGUAGCUGCGGGAUCCCUAUGA [Anatsobe] (puzzle: Sensor v3, turn-off variant 2)" target_system="MS2 coat protein" units_label=µM quantitative_result=0.0152

What apparent KD of MS2 coat protein value was documented for this sequence, UAACACCGAGGAUAUACAUUUCUCAUAAGGUGCAAAACCGCACAUGAGGAUCACCCAUGUAGAAGGCGGCAAAU [Enrabeange] (puzzle: Exclusion 2) ?
0.0148

====

tested on: MS2 coat protein; experiment: apparent KD of MS2 coat protein; designed switch direction (-1 OFF switch, 1 ON switch): 1; higher = weaker reporter binding; settings: input ligand: none
MEASUREMENT_NAME: apparent KD of MS2 coat protein (nM)
Answer format: numeric, nM implied, no suffix.

item_sequence="AUAAUAAGGACAGGAUAUGGGAAAGGAAGUGUACUAGAAGGGUCGAGAAGACCAGAACAUGAGGAUCACCCAUGUGAUGGGAAA [PowerStrip SSNG 1.28] (Eterna round: R96, puzzle: Same State NG 1)" quantitative_result=36.1
item_sequence="GGAAGGAGGUCAGGAUAUGAACGGAAGGUACAUGAGGAUCACCCAUGUUACGGAGGAAACCCACGUUAGAAGGGACAAGGAAGG [AK SSNG2-V2-4] (Eterna round: R96, puzzle: Same State NG 2)" quantitative_result=30.5
item_sequence="AGAAGACAUGAGGAUCACCCAUGUACAUAAUGAGGAGAAUGGGAGGAUAUGUAGAGAGAGAGGGAGCAGAAGGUCCAGUAUGAA [Default title] (Eterna round: R96, puzzle: Same State NG 3)" quantitative_result=148
item_sequence="AUUUGCGCUAUAGGAUAUGGCAGGGUGAACCAGCCAGAAGGAUAAGUAGGGAGGUGACAUGAGGAUCACCCAUGUAAUAAGGAA [Eternabot solution 6] (Eterna round: R96, puzzle: Same State NG 1)" quantitative_result=378
item_sequence="UUUGCAUUGCAAGGAUAUUGAUAACAUGAGGAUCACCCAUGUAUAGGUUCAGGAUUUACGAGUAACAAGAAGGUGCUAUUGUUU [JR_SSNG2_Sub040] (Eterna round: R96, puzzle: Same State NG 2)" quantitative_result=31.8
item_sequence="GUUACAUGAGGAUCACCCAUGUAUGUGUGGGAGUAAGUGUCUUAGGAUAUCUAUUAUUAAAAUUAAGAGAAGGAAGAUUGUUGU [JMF's solution 18] (Eterna round: R96, puzzle: Same State NG 3)" quantitative_result=103

What apparent KD of MS2 coat protein value was documented for this sequence, GUAGCAUACCGAGGAUAUUCAUAUUAAACAUGAGGAUCACCCAUGUAUUAGGCCAAAAGGCCUUGGGAGAAGGCGGAAUGCUAC [Xeonanis - 20 Mod5] (Eterna round: R96, puzzle: Same State NG 2) ?
48.3

What apparent KD of MS2 coat protein value was documented for this sequence, GUUACAUGAGGAUCACCCAUGUAUGUGUGGGAGUAAGUGUCUUAGGAUAUCUAUGAUUUAAUUAAAGAGAAGGAAGAUUGUUGU [JMF's solution 83] (Eterna round: R96, puzzle: Same State NG 3) ?
103

What apparent KD of MS2 coat protein value was documented for this sequence, CUGAGCGAUCAAGGAUAUCACGUCGUUUAGACGUGAGAAGGUGAUCAUAACAUGAGGAUCACCCAUGUAUUACAUGAAGCUCAG [SSNG1/2-A3] (Eterna round: R96, puzzle: Same State NG 1) ?
1240

What apparent KD of MS2 coat protein value was documented for this sequence, AAACGGCCGAACGGAGGGCCACAUGAGGAUCACCCAUGUACAUAGGAUAUCACACCAACGAGGCGUGAGAAGGGUGAUUAAAAC [Teisedbe] (Eterna round: R96, puzzle: Same State NG 3) ?
1110

What apparent KD of MS2 coat protein value was documented for this sequence, GAGUAGUUGAAAGGAUAUGGAUUAUUGUAGGAUCCAGAAGGUUUUAACAUGAGGAUCACCCAUGUAGGACUAUAUAUGUGAAUA [Parity 96 - Jieux - Same State NG 1] (Eterna round: R96, puzzle: Same State NG 1) ?
15.4

What apparent KD of MS2 coat protein value was documented for this sequence, UUUACUUUCAUAGGAUAUCAUGCGAAAAUUGCGUGAGAAGGGUGCACACUGUCUUUCUAGGAGUACAUGAGGAUCACCCAUGUG [SameState NG1 #66] (Eterna round: R96, puzzle: Same State NG 1) ?
50.9

What apparent KD of MS2 coat protein value was documented for this sequence, UUACUCAUGUAAGGAUAUGCAGCCGAAACGGCUGCAGAAGGUACUAUAAUACAUGAGGAUCACCCAUGUAAAAUAUAUAAAGUU [Mat - Same State NG 1 - JL mod - D96] (Eterna round: R96, puzzle: Same State NG 1) ?
28.2

What apparent KD of MS2 coat protein value was documented for this sequence, GCAACGUGAUUAGGAUAUGCGAAACCCAUGGAAACUACACAUGAGGAUCACCCAUGUCCAUAGCCGCAGAAGGGAUCCGGAGCA [Eternabot solution 6] (Eterna round: R96, puzzle: Same State NG 2) ?
147

What apparent KD of MS2 coat protein value was documented for this sequence, UGCUAGUGGGUAGGAUAUCUAGGAUAUGGGAAAGACUAAGUCUGUAGGUCACCUAACCCAGAAGGAGAGAAGGACCAUUCAGCU [pwkr ssNG2 2FMN + F9.26] (Eterna round: R96, puzzle: Same State NG 2) ?
38

What apparent KD of MS2 coat protein value was documented for this sequence, CUGAGCAGUCAAGGAUAUCACGUCGUUUAGACGUGAGAAGGUGACCAAUACAUGAGGAUCACCCAUGUAAUACAUGAAGCUCAG [SSNG1/12-A3] (Eterna round: R96, puzzle: Same State NG 1) ?
37.2

What apparent KD of MS2 coat protein value was documented for this sequence, UUCCCAUCGGGAGGAUAUGGUUCCUUAUUGGUUCUAGAAGGUCCAACAUGAGGAUCACCCAUGUGGGAGUGGUCUAAUGACCUC [SS NG10LRO05] (Eterna round: R96, puzzle: Same State NG 1) ?
702

What apparent KD of MS2 coat protein value was documented for this sequence, UUGAAGAAUUAAGGAUAUUGAGUACAUAUGUUUAACAUGAGGAUCACCCAUGUGGGUUGCGGUAUCGAGAAGGUAAAAUACUAG [Mat - same State NG 2 - JL mod - D73] (Eterna round: R96, puzzle: Same State NG 2) ?
87.9
